assay: blockers of mitochondrial fusion, WT vs mutant – cell-based, chemical genetic, wild-type and mutant, confirmation (AID 1361); settings: Cell-based mitochondrial fusion phenotype, imaging, WT cells
Active and inactive are the calls of the source. The rule behind the calls is not given here.
Outcomes: T (active), F (inactive)

{"COMPOUND": "CC1=C(C#N)C(NC(=O)c2ccc(C)cc2)(C(F)(F)F)C(=O)N1 (stereo unspecified)", "CAT": "F"}
{"COMPOUND": "Cc1cc(N2C(=O)C=CC2=O)c([N+](=O)[O-])cc1C", "CAT": "F"}
{"COMPOUND": "CN(C)S(=O)(=O)c1cccc(C(=O)NCC2CCCO2)c1 (stereo unspecified)", "CAT": "F"}
{"COMPOUND": "CC/C(=C(/CC)c1ccc(O)cc1)c1ccc(O)cc1", "CAT": "T"}
{"COMPOUND": "Cc1ccc(-c2ncccc2OC(=O)C23CC4CC(CC(C4)C2)C3)cc1", "CAT": "T"}
{"COMPOUND": "C/C=C(/C(=C/C)c1ccc(O)cc1)c1ccc(O)cc1", "CAT": "T"}
{"COMPOUND": "S=C(NCCNCc1ccccc1)NC1CCCCC1", "CAT": "T"}
{"COMPOUND": "O=C(NC(=S)Nc1ccc(S(=O)(=O)NC2CCCCC2)cc1)c1cccs1", "CAT": "T"}
{"COMPOUND": "CN(CC(=O)Nc1ccccc1Sc1ccccc1)C1CCCCC1", "CAT": "T"}
{"COMPOUND": "Cc1csc(NC(=O)c2c(O)c3c(n(CC(C)C)c2=O)CCCC3)n1", "CAT": "T"}
{"COMPOUND": "CCOc1ccccc1-n1c(CN2CCN(C(=O)c3ccco3)CC2)nc2ccccc2c1=O", "CAT": "F"}
